Biological target: MMP-3 (Homo sapiens)
Construct: Truncated Prostromelysin-257 was expressed in a soluble form in E.coli; made in house; host or cells: E. coli
Sequence (P08254 100-274 limits assumed): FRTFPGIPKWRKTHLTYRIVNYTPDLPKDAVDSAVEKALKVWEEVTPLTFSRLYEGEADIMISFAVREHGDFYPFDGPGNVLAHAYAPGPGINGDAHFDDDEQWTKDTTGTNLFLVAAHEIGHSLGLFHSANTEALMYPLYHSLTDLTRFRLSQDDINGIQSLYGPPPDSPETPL
Assay: Secondary P218 Quenched fluorescence Assay for MMP-3 Inhibition
Type: biochemical
Details: P218 substrate, pH 6.5, 25° C.; x (n) = average of n determinations; read-out: MMP-3 Fluorogenic IC50
pIC50: −log10 of the molar value.

{"columns": ["compound", "system.under.test", "pIC50"],
 "data": [
  ["CC(C)(C)C(=O)SCC(CC(=O)c1ccc(-c2ccc(Cl)cc2)cc1)C(=O)O (stereo not drawn) [Example 193]", "MMP-3 (Homo sapiens)", 6.82],
  ["CC(C)CC(CC(=O)c1ccc(-c2ccc(Cl)cc2)cc1)C(=O)O (stereo not drawn)", "MMP-3 (Homo sapiens)", 6.09],
  ["CCOC(=O)/C=C/c1ccc(-c2ccc(C(=O)CC(CCCc3ccccc3)C(=O)O)cc2)cc1 (stereo not drawn)", "MMP-3 (Homo sapiens)", 7.32]
]}
